Molecular target: Amine oxidase [flavin-containing] B (Homo sapiens, UniProt P27338)
Sequence (P27338 whole entry): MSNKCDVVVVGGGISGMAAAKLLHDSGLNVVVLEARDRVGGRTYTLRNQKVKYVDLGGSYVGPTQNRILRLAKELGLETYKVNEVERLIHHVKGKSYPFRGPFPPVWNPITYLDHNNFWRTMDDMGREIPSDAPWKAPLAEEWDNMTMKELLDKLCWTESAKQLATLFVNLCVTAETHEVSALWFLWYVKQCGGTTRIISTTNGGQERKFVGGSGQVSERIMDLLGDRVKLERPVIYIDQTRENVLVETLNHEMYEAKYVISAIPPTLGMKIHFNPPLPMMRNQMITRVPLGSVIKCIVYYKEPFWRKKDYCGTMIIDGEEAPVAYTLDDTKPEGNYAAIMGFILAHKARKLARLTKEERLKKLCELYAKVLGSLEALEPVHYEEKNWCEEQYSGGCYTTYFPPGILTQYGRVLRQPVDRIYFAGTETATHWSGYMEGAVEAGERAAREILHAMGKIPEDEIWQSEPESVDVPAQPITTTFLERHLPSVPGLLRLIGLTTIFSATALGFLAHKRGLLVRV
Experiment: Time dependent inhibition of human recombinant MAOB at 0.25 to 1.25 uM using kynuramine substrate by fluorescence spectrophotometry based L-B plot analysis
Readout kind: Ki

{"columns": ["Compound", "Measured on", "Observed"],
 "data": [
  ["C#CCNC1CCc2ccccc2C1 (racemic)", "Amine oxidase [flavin-containing] B (Homo sapiens, UniProt P27338)", "460 nM"]
]}

---

Molecular target: UniProtKB P21397
Assay: Inhibition of human recombinant MAOA using kynuramine substrate incubated for 20 mins by fluorescence spectrophotometry
pIC50: −log10 of the molar value.

{"columns": ["Molecule", "Measured on", "pIC50"],
 "data": [
  ["C#CCNC1CCc2ccccc2C1 (racemic)", "UniProtKB P21397", 6.14]
]}

---

Target: Amine oxidase [flavin-containing] A (Rattus norvegicus)
Sequence (P21396 whole entry): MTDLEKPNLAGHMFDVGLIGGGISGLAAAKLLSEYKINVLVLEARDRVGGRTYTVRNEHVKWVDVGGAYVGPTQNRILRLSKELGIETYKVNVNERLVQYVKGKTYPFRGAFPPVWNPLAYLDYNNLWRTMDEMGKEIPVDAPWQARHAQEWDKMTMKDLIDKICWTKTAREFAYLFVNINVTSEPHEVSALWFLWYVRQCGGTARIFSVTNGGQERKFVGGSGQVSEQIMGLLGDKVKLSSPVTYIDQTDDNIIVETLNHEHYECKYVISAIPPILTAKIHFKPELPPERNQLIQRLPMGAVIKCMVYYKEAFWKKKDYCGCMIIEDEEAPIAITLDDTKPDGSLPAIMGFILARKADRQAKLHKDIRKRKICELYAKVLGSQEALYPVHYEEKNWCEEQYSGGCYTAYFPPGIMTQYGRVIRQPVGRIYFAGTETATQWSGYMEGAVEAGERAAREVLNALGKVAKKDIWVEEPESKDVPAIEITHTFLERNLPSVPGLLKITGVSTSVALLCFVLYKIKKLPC
Quick reference for IC50 among some compounds

{"columns": ["Compound", "Value unit", "IC50"],
 "data": [
  ["C#CCN(C)C1CCc2ccccc2C1 (single isomer, unassigned; (-))", "nM", 46],
  ["C#CCN(C)C1CCc2ccccc2C1 (single isomer, unassigned; (+))", "nM", 140],
  ["C#CCN(C)C1CCc2ccccc2C1 (racemic)", "nM", 51]
]}

---

Target: MAO-A (Homo sapiens, UniProt P21397)
Sequence (P21397 whole entry): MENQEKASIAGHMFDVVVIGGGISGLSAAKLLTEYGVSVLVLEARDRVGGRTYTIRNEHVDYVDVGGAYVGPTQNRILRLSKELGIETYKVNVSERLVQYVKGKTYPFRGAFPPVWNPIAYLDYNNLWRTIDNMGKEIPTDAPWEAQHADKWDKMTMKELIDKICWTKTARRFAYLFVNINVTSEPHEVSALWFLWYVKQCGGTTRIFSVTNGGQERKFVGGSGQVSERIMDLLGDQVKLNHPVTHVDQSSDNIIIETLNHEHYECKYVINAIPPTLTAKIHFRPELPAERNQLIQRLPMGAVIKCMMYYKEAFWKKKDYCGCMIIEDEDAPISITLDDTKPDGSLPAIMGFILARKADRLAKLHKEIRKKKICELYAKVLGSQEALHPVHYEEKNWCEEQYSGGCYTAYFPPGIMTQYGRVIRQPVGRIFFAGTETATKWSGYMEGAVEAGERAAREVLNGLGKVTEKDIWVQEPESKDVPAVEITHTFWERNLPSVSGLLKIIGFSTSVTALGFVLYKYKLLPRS
Experiment: Inhibition of human recombinant MAOA assessed as enzyme activity recovery level at 4 times IC50 using kynuramine substrate incubated for 15 mins followed by without dialysis by fluorescence spectrophotometry
Type: toxicity
Set-up: scale not given: the % may be the effect or the level left
Conditions: probe kynuramine, read-out: Activity

{"columns": ["Compound", "Value unit", "activity at 0.25 h"],
 "data": [
  ["C#CCNC1CCc2ccccc2C1 (racemic)", "%", 46]
]}

---

Target: MAO-A (Homo sapiens)
Assay: Resistance index, ratio of IC50 for toloxatone to IC50 for test compound for inhibition of human recombinant MAOA using kynuramine substrate incubated for 20 mins by fluorescence spectrophotometry
Type: toxicity
Conditions: probe kynuramine, read-out: Ratio IC50
Readout kind: selectivity ratio at 20 min

{"columns": ["Molecule", "Readout kind", "Observed"],
 "data": [
  ["C#CCNC1CCc2ccccc2C1 (racemic)", "selectivity ratio at 20 min", 5]
]}
